# Tested on: SK-MEL-2
# method summary: NCI tumour cell line growth inhibition, 48 h
Active and inactive are the calls of the source. Rule as the data show it: active = GI50 up to about 1.1 µM and inactive = higher.
Return exactly one item of yes = active, no = inactive

COC(=O)[C@]1(c2ccc(N(C)C)cc2OC)C[C@@H]2CCCN(CCc3c1[nH]c1ccccc31)C2: no

Write down the call the test reported for this compound. Item: CC12Oc3ccc4ccccc4c3C1c1c(ccc3ccccc13)O2 (stereo unspecified) no

Same for O=c1oc2ccc3ccccc3c2cc1-c1nnc(-c2ccc([N+](=O)[O-])cc2)[nH]1 no

// next record CN(C)C1COC2Cc3ccccc3C1O2 (stereo unspecified) no

Then COc1cc(/C=C2/SC(c3ccccc3)N(c3ccc(NC(C)=O)cc3)C2=O)cc(OC)c1OC (stereo unspecified) ? no

Next: S=c1[nH]nc(Cn2c3ccc(Br)cc3c3nc4ccccc4nc32)n1C1CCCCC1 no

What about this compound? Cc1ccc2occ/c(=N\Nc3ccccc3)c2c1 no

Okay, and CC1=C2C(=O)O[C@@H](c3ccoc3)[C@]2(C)CCC1 ? no

Also, COC(=O)CCCC1(CCCC(=O)OC)CCCCCCCCC(CCCC(=O)OC)(CCCC(=O)OC)C(=O)C1=O please. no

Can you check CC(C)(C)C(=O)C(C(c1ccccc1)N1CCOCC1)N1CCOCC1 (stereo unspecified) next? no
